Items are presented alongside their recorded growth at 10 µM.
Test system: HCT-116
Assay: Growth inhibition of human HCT116 cells assessed as cell growth at 10^-5 M after 48 hrs by sulforhodamine B assay relative to control
Assay type: functional
Details: HCT-116, 48 h, read-out: Activity
Please give a number only; it is taken to be in %.

Consider the reported growth at 10 µM for these molecules:
Please report the recorded growth at 10 µM for N=c1scc(-c2ccc(Cl)cc2)n1CC(=O)N1CCN(c2ccccc2)CC1 . 101

Would you mind doing Cc1ccc(-c2csc(=N)n2CC(=O)N2CCN(C)CC2)cc1 as well? 104

Would you mind doing Cc1ccc(-c2csc(=N)n2CC(=O)N2CCOCC2)cc1 as well? 101

More entries:
Please report the recorded growth at 10 µM for CN1CCN(C(=O)Cn2c(-c3ccc(Cl)cc3)csc2=N)CC1 . 94.4

Would you mind doing N=c1scc(-c2ccccc2)n1CC(=O)N1CCOCC1 as well? 98.6

Would you mind doing Cc1ccc(-c2csc(=N)n2CC(=O)N2CCN(c3ccccc3)CC2)cc1 as well? 103

Would you mind doing CN1CCN(C(=O)Cn2c(-c3ccccc3)csc2=N)CC1 as well? 91.6

Would you mind doing N=c1scc(-c2ccccc2)n1CC(=O)N1CCN(c2ccccc2)CC1 as well? 107

Would you mind doing N=c1scc(-c2ccc(Cl)cc2)n1CC(=O)N1CCOCC1 as well? 87.4

Would you mind doing CC(=O)N1CCN(C(=O)Cn2c(-c3ccccc3)csc2=N)CC1 as well? 96.1

Would you mind doing CC(=O)N1CCN(C(=O)Cn2c(-c3ccc(Cl)cc3)csc2=N)CC1 as well? 93

Would you mind doing CC(=O)N1CCN(C(=O)Cn2c(-c3ccc(C)cc3)csc2=N)CC1 as well? 85.9
